target: UniProtKB P35498; test: Electrophysiological Assay (EP), patch voltage clamp, NaV1.1; format: cell-based; conditions: HEK-293 cells, whole-cell patch clamp;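 also: sodium current block measured at ambient temperature, holding at fully inactivating potential, 20 ms repolarization to −150 mV before test pulse, versus 0.5% DMSO control currents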
measurement_type: IC50 (µM)

compound="O=S(=O)(Nc1nccs1)c1cc(Cl)c(N[C@H](CN2CCC2)c2ccccc2)cc1F [Example 67, 2,2,2-trifluoroacetate]" number=10
compound="COc1cccc(CN2CCC2)c1CNc1cc(F)c(S(=O)(=O)Nc2cscn2)c(F)c1 [Example 209, 2,2,2-trifluoroacetate]" number=10
compound="O=S(=O)(Nc1cscn1)c1c(F)cc(NCc2c(Cl)cccc2CN2CC(F)C2)cc1F [Example 129]" number=10

Recorded values, source patent US11174268B2.
